We begin with a simple list: items and their reported pIC50.
System: HL-60 (acute myeloid leukemia)
Test: Antiproliferative screening (cytostatic activity)
Type: cell-based
Details: Homo sapiens, HL-60; 72 h, IncuCyte imaging; read-out: IC50 HL-60
pIC50: −log10 of the molar value.

molecule	pIC50
COc1cc(NC(C)CCCNC(=O)/C=C/C(=O)Nc2ccc(C(F)(F)F)cc2)c2ncccc2c1 (stereo not shown) [Compound 4f]	< 4.00
COc1cc(NC(C)CCCNC(=O)/C=C/C(=O)Nc2ccc(Cl)cc2)c2ncccc2c1 (stereo not shown) [Compound 4d]	< 4.00
COc1cc(NC(C)CCCNC(=O)/C=C/C(=O)Nc2ccc(F)cc2)c2ncccc2c1 (stereo not shown) [Compound 4b]	< 4.00
COc1cc(NC(C)CCCNC(=O)/C=C/C(=O)Nc2cccc(C(F)(F)F)c2)c2ncccc2c1 (stereo not shown) [Compound 4e]	< 4.00
COc1cc(NC(C)CCCNC(=O)/C=C/C(=O)Nc2cccc(F)c2)c2ncccc2c1 (stereo not shown) [Compound 4a]	5.24
COc1cc([C@@H]2c3cc4c(cc3[C@@H](O[C@@H]3O[C@@H]5CO[C@@H](C)O[C@H]5[C@H](O)[C@H]3O)[C@H]3COC(=O)[C@H]23)OCO4)cc(OC)c1O [EPEG, etoposide, reference compound]	7.52
COc1cc(NC(C)CCCNC(=O)/C=C/C(=O)Nc2cccc(Cl)c2)c2ncccc2c1 (stereo not shown) [Compound 4c]	< 4.00

* * *

// reported melting point per item
experimental.readout: melting point

In [3]: df
Out[3]:
                                   compound        reading
0  COc1cc(NC(C)CCCNC(=O)CCC(=O)Nc2cccc(C(F)(F)F)c2)c2ncccc2c1 (stereo not shown)  146 to 149 °C
1  COc1cc(NC(C)CCCNC(=O)CCC(=O)Nc2ccc(F)cc2)c2ncccc2c1 (stereo not shown)  118 to 120 °C
2  COc1cc(NC(C)CCCNC(=O)CCC(=O)Nc2ccc(Cl)cc2)c2ncccc2c1 (stereo not shown)  152 to 153 °C
3  COc1cc(NC(C)CCCNC(=O)/C=C/C(=O)Nc2cccc(Cl)c2)c2ncccc2c1 (stereo not shown)  187 to 188 °C

* * *

Test system: HCT-116 (colorectal carcinoma)
Test: Antiproliferative screening (cytostatic activity)
Type: cell-based
Conditions: Homo sapiens, HCT-116; 72 h, IncuCyte imaging; read-out: IC50 HCT-116

molecule	tested.system	unit.abbrev	readout.relation	IC50
COc1cc(NC(C)CCCNC(=O)/C=C/C(=O)Nc2cccc(F)c2)c2ncccc2c1 (stereo not shown)	HCT-116 (colorectal carcinoma)	µM	=	22.3
COc1cc(NC(C)CCCNC(=O)/C=C/C(=O)Nc2ccc(F)cc2)c2ncccc2c1 (stereo not shown)	HCT-116 (colorectal carcinoma)	µM	>	100
COc1cc(NC(C)CCCNC(=O)/C=C/C(=O)Nc2ccc(Cl)cc2)c2ncccc2c1 (stereo not shown)	HCT-116 (colorectal carcinoma)	µM	>	100
COc1cc(NC(C)CCCNC(=O)/C=C/C(=O)Nc2cccc(Cl)c2)c2ncccc2c1 (stereo not shown)	HCT-116 (colorectal carcinoma)	µM	=	73
COc1cc(NC(C)CCCNC(=O)/C=C/C(=O)Nc2cccc(C(F)(F)F)c2)c2ncccc2c1 (stereo not shown)	HCT-116 (colorectal carcinoma)	µM	>	100
COc1cc([C@@H]2c3cc4c(cc3[C@@H](O[C@@H]3O[C@@H]5CO[C@@H](C)O[C@H]5[C@H](O)[C@H]3O)[C@H]3COC(=O)[C@H]23)OCO4)cc(OC)c1O [EPEG, etoposide, reference compound]	HCT-116 (colorectal carcinoma)	µM	=	1.35
COc1cc(NC(C)CCCNC(=O)/C=C/C(=O)Nc2ccc(C(F)(F)F)cc2)c2ncccc2c1 (stereo not shown)	HCT-116 (colorectal carcinoma)	µM	>	100

* * *

Entries below carry reported MIC on Mycobacterium tuberculosis H37Ra.
experimental.readout: MIC

>>> print(df.to_string())
                                   compound    reading
0  COc1cc(NC(C)CCCNC(=O)/C=C/C(=O)Nc2cccc(Cl)c2)c2ncccc2c1 (centres unmarked) [Compound 4c]  128 µg/mL
1  NNC(=O)c1ccncc1 [INH, isoniazid, reference compound]    5 µg/mL
2  COc1cc(NC(C)CCCNC(=O)/C=C/C(=O)Nc2cccc(F)c2)c2ncccc2c1 (centres unmarked) [Compound 4a]  128 µg/mL
3  O=C(O)c1cn(C2CC2)c2cc(N3CCNCC3)c(F)cc2c1=O [CIP, ciprofloxacin, reference compound]   16 µg/mL
4  COc1cc(NC(C)CCCNC(=O)/C=C/C(=O)Nc2ccc(F)cc2)c2ncccc2c1 (centres unmarked) [Compound 4b]   32 µg/mL
5  COc1cc(NC(C)CCCNC(=O)/C=C/C(=O)Nc2ccc(Cl)cc2)c2ncccc2c1 (centres unmarked) [Compound 4d]  128 µg/mL
6  COc1cc(NC(C)CCCNC(=O)/C=C/C(=O)Nc2ccc(C(F)(F)F)cc2)c2ncccc2c1 (centres unmarked) [Compound 4f]   64 µg/mL
7  COc1cc(NC(C)CCCNC(=O)/C=C/C(=O)Nc2cccc(C(F)(F)F)c2)c2ncccc2c1 (centres unmarked) [Compound 4e]  128 µg/mL

* * *

System: NCI-H460 (lung carcinoma)
Test: Antiproliferative screening (cytostatic activity)
Assay type: cell-based
Conditions: Homo sapiens, NCI-H460, 72 h, read-out: IC50 NCI-H460
Description: All human tumor cell lines were acquired from the American Type Culture Collection (ATCC, Manassas, VA, USA), except for the DND-41 cell line which was purchased from the Deutsche Sammlung von Mikroorganismen und Zellkulturen (DSMZ Leibniz-Institut, Braunschweig, Germany) and the Hap1 cell line which was purchased from Horizon Discovery (Waterbeach, UK). […] All media were supplemented with 10% FBS (HyClone, GE Healthcare Life Sciences, USA). […]
experimental.readout: IC50 (µM)

>>> print(df.to_string())
                                   compound              tested_system  unit_abbrev  reading
0  COc1cc(NC(C)CCCN)c2ncccc2c1 (stereo not shown) [PQ, primaquine, reference compound]  NCI-H460 (lung carcinoma)           µM     52.6

* * *

Entries and their measured pEC50 follow.
Test system: Sindbis Virus
Assay: microbe, parasite or virus in culture
Assay type: cell-based
Details: Vero, read-out: EC50 Sindbis Virus, MTS
pEC50: −log10 of the molar value.
experimental.readout: pEC50

>>> df
                                   compound  experimental_readout  reading
0  COc1cc(NC(C)CCCNC(=O)/C=C/C(=O)Nc2ccc(C(F)(F)F)cc2)c2ncccc2c1 (stereo not drawn) [Compound 4f]                 pEC50   < 4.30
1  NC(=O)c1ncn([C@@H]2O[C@H](CO)[C@@H](O)[C@H]2O)n1 [RIB, ribavirin, reference compound]                 pEC50   < 3.60
2  COc1c(C)c2c(c(O)c1C/C=C(\C)CCC(=O)O)C(=O)OC2 [MPA, mycophenolic acid, reference compound]                 pEC50     4.92
3  COc1cc(NC(C)CCCNC(=O)/C=C/C(=O)Nc2ccc(F)cc2)c2ncccc2c1 (stereo not drawn) [Compound 4b]                 pEC50   < 4.30
4  COc1cc(NC(C)CCCNC(=O)/C=C/C(=O)Nc2cccc(C(F)(F)F)c2)c2ncccc2c1 (stereo not drawn) [Compound 4e]                 pEC50     5.28
5  COc1cc(NC(C)CCCNC(=O)/C=C/C(=O)Nc2cccc(Cl)c2)c2ncccc2c1 (stereo not drawn) [Compound 4c]                 pEC50     5.52
6  COc1cc(NC(C)CCCNC(=O)/C=C/C(=O)Nc2ccc(Cl)cc2)c2ncccc2c1 (stereo not drawn) [Compound 4d]                 pEC50   < 4.30
7  COc1cc(NC(C)CCCNC(=O)/C=C/C(=O)Nc2cccc(F)c2)c2ncccc2c1 (stereo not drawn) [Compound 4a]                 pEC50   < 4.30
8  COc1cc(NC(C)CCCN)c2ncccc2c1 (stereo not drawn) [PQ, primaquine, reference compound]                 pEC50   < 4.30

* * *

System: HL-60 (acute myeloid leukemia)
Assay: Antiproliferative screening (cytostatic activity)
Type: cell-based
Details: Homo sapiens, HL-60, 72 h, read-out: IC50 HL-60
pIC50: −log10 of the molar value.
experimental.readout: pIC50

>>> df
                                   molecule  reading
0  COc1cc(NC(C)CCCN)c2ncccc2c1 (stereo not shown) [PQ, primaquine, reference compound]     5.66

The reported numbers originate from paper PMC6100582.
